Data credit: patent US20250282885A1

measurement.target: T1, human Sdc2 (human, UniProt P34741 19-144, limits assumed)
T1 construct: Antigen of the Octet tandem binning, loaded on biosensors at 100 nM; also called huSdc2; hSdc2
T1 sequence (P34741 19-144 limits assumed): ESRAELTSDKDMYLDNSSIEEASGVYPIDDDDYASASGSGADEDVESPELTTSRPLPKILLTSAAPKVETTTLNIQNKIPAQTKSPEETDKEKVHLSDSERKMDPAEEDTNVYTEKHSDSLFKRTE
protocol.text: Octet tandem binning; saturating Ab f4 19844-R3-P3-C11
observable: raw competing-Ab binding signal
Lab note: jot the number down without any unit.

// raw competing-Ab binding signal value for R4M-P3-E06 (antibody, human IgG1, kappa, V domains shown, human IgG1 kappa from the phage campaign) VH: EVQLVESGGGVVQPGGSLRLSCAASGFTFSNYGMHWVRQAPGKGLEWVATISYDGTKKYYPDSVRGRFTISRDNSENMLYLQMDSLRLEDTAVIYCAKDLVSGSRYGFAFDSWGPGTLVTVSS VL: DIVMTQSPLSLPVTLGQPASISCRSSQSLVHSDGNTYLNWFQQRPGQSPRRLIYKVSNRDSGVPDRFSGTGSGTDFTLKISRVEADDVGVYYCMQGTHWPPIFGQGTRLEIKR : 0.0598

For reference, reported raw competing-Ab binding signal for R4M-P3-A12 (antibody, human IgG1, kappa, V domains shown) VH: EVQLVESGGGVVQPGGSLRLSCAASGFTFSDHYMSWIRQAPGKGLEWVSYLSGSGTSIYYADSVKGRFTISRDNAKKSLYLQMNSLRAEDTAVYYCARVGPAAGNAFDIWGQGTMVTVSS VL: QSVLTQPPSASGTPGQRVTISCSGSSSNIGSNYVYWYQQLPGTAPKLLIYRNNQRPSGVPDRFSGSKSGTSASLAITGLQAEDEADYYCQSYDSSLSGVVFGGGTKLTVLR stands at -0.0875

R4M-P1-A10 (antibody, human IgG1, kappa, V domains shown) VH: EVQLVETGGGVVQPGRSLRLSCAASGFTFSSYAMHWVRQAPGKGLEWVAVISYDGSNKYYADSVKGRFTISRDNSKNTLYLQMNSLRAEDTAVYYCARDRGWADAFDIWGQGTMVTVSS VL: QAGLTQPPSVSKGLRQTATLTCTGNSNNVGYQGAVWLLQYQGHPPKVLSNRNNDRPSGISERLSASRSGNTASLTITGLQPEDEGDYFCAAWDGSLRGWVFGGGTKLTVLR has a reported raw competing-Ab binding signal of 0.193

Please fill in: raw competing-Ab binding signal reported for 6-N03-A (antibody, mouse IgG1, kappa, V domains shown) VH: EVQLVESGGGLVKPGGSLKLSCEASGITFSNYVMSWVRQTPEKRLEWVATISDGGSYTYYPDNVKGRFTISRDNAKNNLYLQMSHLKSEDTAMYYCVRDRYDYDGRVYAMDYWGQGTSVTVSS VL: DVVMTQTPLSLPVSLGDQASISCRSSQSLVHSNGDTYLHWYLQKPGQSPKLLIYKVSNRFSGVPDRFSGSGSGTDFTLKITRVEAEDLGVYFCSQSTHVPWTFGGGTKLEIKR = 0.301

raw competing-Ab binding signal reading for 8-G17-A (antibody, V domains shown, PentaMice hybridoma clone, made recombinantly in CHO cells) VH: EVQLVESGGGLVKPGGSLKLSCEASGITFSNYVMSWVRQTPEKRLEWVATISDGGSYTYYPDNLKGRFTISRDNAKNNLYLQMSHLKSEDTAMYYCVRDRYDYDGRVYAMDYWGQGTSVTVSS VL: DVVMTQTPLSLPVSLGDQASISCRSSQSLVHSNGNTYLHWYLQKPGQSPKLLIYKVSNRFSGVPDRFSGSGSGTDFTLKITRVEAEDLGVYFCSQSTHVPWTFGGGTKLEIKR : 0.776

R3-P3-E09 (antibody, human IgG1, kappa, V domains shown, human IgG1 kappa from the phage campaign) VH: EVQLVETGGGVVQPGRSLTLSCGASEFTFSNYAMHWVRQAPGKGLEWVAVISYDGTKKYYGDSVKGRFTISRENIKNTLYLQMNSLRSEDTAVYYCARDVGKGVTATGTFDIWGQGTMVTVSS VL: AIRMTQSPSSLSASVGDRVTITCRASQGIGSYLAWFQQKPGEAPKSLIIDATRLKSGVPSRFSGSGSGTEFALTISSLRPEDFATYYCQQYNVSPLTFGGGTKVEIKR yielded raw competing-Ab binding signal of -0.138
